# TESTED_SYSTEM: Leukotriene B4 receptor (Homo sapiens, UniProt Q9NPC1+Q15722)
# ASSAY_TEXT: Inhibition of LTB4 receptor induced chemotaxis of isolated human neutrophils
# Format: functional
This section presents compounds with their documented log10(IC50) values.
Give log10 of IC50, with IC50 taken in µM.

The compound identified as CC(C)(C(=O)O)c1ccc2c(c1)OC[C@H](Cc1ccccc1)[C@H]2O (stereo in doubt; 6) registered its log10(IC50) at 0.38

The compound identified as "CC(C)(C(=O)O)c1ccc2c(c1)OC[C@H](CC1CCCCC1)[C@H]2O" registered its log10(IC50) at 1.30

The compound identified as O=C(O)C1(c2ccc3c(c2)OC[C@H](Cc2ccccc2)[C@H]3O)CCCCC1 (stereo in doubt; 14) registered its log10(IC50) at -0.42

The compound identified as O=C(O)C1(c2ccc3c(c2)OC[C@H](Cc2ccccc2)[C@H]3O)CCCC1 (stereo in doubt; 13) registered its log10(IC50) at -1.01

The compound identified as "CC(C)(C(=O)O)c1ccc2c(c1)OC[C@H](Cc1ccccn1)[C@H]2O" registered its log10(IC50) at 0.41

The compound identified as "O=C(O)CCc1ccc2c(c1)OC[C@H](Cc1ccccc1)[C@H]2O" registered its log10(IC50) at 1.20

The compound identified as "CNC(=O)C(C)(C)c1ccc2c(c1)OC[C@H](Cc1ccccc1)[C@H]2O" registered its log10(IC50) at 0.18

The compound identified as "CC(C)(C(=O)O)c1ccc2c(c1)OC[C@H](Cc1cccc(F)c1)[C@H]2O" registered its log10(IC50) at 0.97

###

This section presents compounds with their documented IC50 values.
# TESTED_SYSTEM: Leukotriene B4 receptor (Homo sapiens, UniProt Q9NPC1+Q15722)
# ASSAY_TEXT: Inhibition of LTB4 receptor induced chemotaxis of isolated human neutrophils
# Format: functional
Reply numerically in µM, unit not repeated.

>>> df
                                   compound  unit_of_measure  result
0  O=C(O)C1(c2ccc3c(c2)OC[C@H](CCc2ccc(-c4ccccc4)cc2)[C@H]3O)CCCC1               µM     5.8
1  O=C(O)Cc1ccc2c(c1)OC[C@H](Cc1ccccc1)[C@H]2O (stereo in doubt; 5)               µM      34
2  CC(C)c1ccc2c(c1)OC[C@H](Cc1ccccc1)[C@H]2O               µM     7.2

// moving on: another record for IC50
The compound identified as O=C(O)C1(c2ccc3c(c2)OC[C@H](Cc2ccccc2)[C@H]3O)CCCC1 (stereo in doubt; 11) registered its IC50 at 0.16

###

This section presents molecules with their documented IC50 values.
# TESTED_SYSTEM: Leukotriene B4 receptor (Cavia porcellus)
# ASSAY_TEXT: Inhibition of leukotriene B4 (LTB4) binding to guinea pig spleen
Reply numerically in µM, unit not repeated.

Solved cases below.
>>> df
                                   molecule  endpoint  result
0  O=C(O)C1(c2ccc3c(c2)OC[C@H](CCc2ccc(-c4ccccc4)cc2)[C@H]3O)CCCC1      IC50     3.2
1  O[C@H]1c2ccc(C3(C4N=NN=N4)CCCC3)cc2OC[C@@H]1C(c1ccccc1)C1CCCCC1 (stereo not given in full)      IC50    0.35
2  CC(C)(C(=O)N1CCCC1)c1ccc2c(c1)OC[C@H](Cc1ccccc1)[C@H]2O      IC50      40

IC50 of "O=C(O)C1(c2ccc3c(c2)OC[C@H](CCCc2ccccc2)[C@H]3O)CCCC1" , assay on Leukotriene B4 receptor (Cavia porcellus), is 2.7

###

# TESTED_SYSTEM: Leukotriene B4 receptor (Cavia porcellus)
# ASSAY_TEXT: Inhibition of leukotriene B4 (LTB4) binding to guinea pig spleen
This section presents compounds with their documented IC50 values.
Reply numerically in µM, unit not repeated.

                                   compound                             tested_system  endpoint  unit_of_measure  result
0  CC(C)(C(=O)O)c1ccc2c(c1)OC[C@H](Cc1ccccc1)[C@H]2O (stereo in doubt)  Leukotriene B4 receptor (Cavia porcellus)      IC50               µM      40
1         O[C@H]1c2ccccc2OC[C@@H]1Cc1ccccc1  Leukotriene B4 receptor (Cavia porcellus)      IC50               µM     100
2  O=C(O)Cc1ccc2c(c1)OC[C@H](Cc1ccccc1)[C@H]2O (stereo in doubt; 4)  Leukotriene B4 receptor (Cavia porcellus)      IC50               µM      25
3  CC(C)(C(=O)O)c1ccc2c(c1)OC[C@H](Cc1ccccn1)[C@H]2O  Leukotriene B4 receptor (Cavia porcellus)      IC50               µM       8
4  CC(C(=O)O)c1ccc2c(c1)OC[C@H](Cc1ccccc1)[C@H]2O (stereo not given in full)  Leukotriene B4 receptor (Cavia porcellus)      IC50               µM      13

The compound identified as "O=C(O)c1ccc2c(c1)OC[C@H](Cc1ccccc1)[C@H]2O" registered its IC50 at 20

The compound identified as "O=C(O)C1(c2ccc3c(c2)OC[C@H](Cc2ccccc2)[C@H]3O)CCC1" registered its IC50 at 2.7

The compound identified as "CCC(CC)(C(=O)O)c1ccc2c(c1)OC[C@H](Cc1ccccc1)[C@H]2O" registered its IC50 at 0.29

The compound identified as "O=C(O)C1(c2ccc3c(c2)OC[C@H](Cc2ccc4ccccc4n2)[C@H]3O)CCCC1" registered its IC50 at 8.8

###

# Species on record: Homo sapiens
# ASSAY_TEXT: Antagonistic activity was evaluated against LT B4 on human neutrophils
# Type: functional
ENDPOINT: IC50 (nM)
Reply numerically in nM, unit not repeated.

The compound identified as CC(C(=O)O)c1ccc2c(c1)OC[C@H](Cc1ccccc1)[C@H]2O (stereo partly specified) registered its IC50 at 790

###

# TESTED_SYSTEM: Leukotriene B4 receptor (Homo sapiens, UniProt Q9NPC1+Q15722)
# ASSAY_TEXT: Inhibition of LTB4 receptor induced chemotaxis of isolated human neutrophils
# Type: functional
This section presents compounds with their documented log10 IC50 values.
Give log10 of IC50, with IC50 taken in µM.

>>> print(df.to_string())
                                   compound  result
0  O=C(O)Cc1ccc2c(c1)OC[C@H](Cc1ccccc1)[C@H]2O (stereo in doubt; 4)    1.08
1  O=C(O)C1(c2ccc3c(c2)OC[C@H](Cc2ccc(C(F)(F)F)cc2)[C@H]3O)CCCC1    0.78
2  O=C(O)C1(c2ccc3c(c2)OC[C@H](Cc2cccs2)[C@H]3O)CCCC1   -0.48

The compound identified as O=C(O)C1(c2ccc3c(c2)OC[C@H](Cc2ccccc2)[C@H]3O)CCCCC1 (stereo in doubt; 16) registered its log10 IC50 at -0.77

The compound identified as "O=C(O)C1(c2ccc3c(c2)OC[C@H](Cc2ccc(F)cc2F)[C@H]3O)CCCC1" registered its log10 IC50 at 0.00

The compound identified as COc1cccc(C[C@H]2COc3cc(C(C)C(=O)O)ccc3[C@@H]2O)c1 (some centres undefined) registered its log10 IC50 at 1.09

The compound identified as CC(C(=O)O)c1ccc2c(c1)OC[C@H](Cc1ccccc1)[C@H]2O (some centres undefined) registered its log10 IC50 at 1.21

The compound identified as O=C(O)C1(c2ccc3c(c2)OC[C@H](Cc2ccccc2)[C@H]3O)CCCCC1 (stereo in doubt; 15) registered its log10 IC50 at -0.64

###

# TESTED_SYSTEM: Leukotriene B4 receptor (Cavia porcellus)
# ASSAY_TEXT: Inhibition of leukotriene B4 (LTB4) binding to guinea pig spleen
Using IC50 as the sorting value, the categories are group 1 = under 0.7 µM, group 2 = from 0.7 µM up to 10 µM, group 3 = 10 µM and over

These recorded examples may help you get a feel for the data.
In [3]: df
Out[3]:
                                   molecule      cat
0  O=C(O)Cc1ccc2c(c1)OC[C@H](Cc1ccccc1)[C@H]2O (stereo in doubt; 5)  group 3
1  O=C(O)CCc1ccc2c(c1)OC[C@H](Cc1ccccc1)[C@H]2O  group 3
2  O=C(O)C1(c2ccc3c(c2)OC[C@H](C(c2ccccc2)c2ccccc2)[C@H]3O)CCCC1  group 2
3  COc1ccc(C[C@H]2COc3cc(C(C)C(=O)O)ccc3[C@@H]2O)cc1 (some centres undefined)  group 3

Query: Band for the recorded IC50 of "O=C(O)C1(c2ccc3c(c2)OC[C@H](CCc2ccccc2)[C@H]3O)CCCC1" ?
Response: group 1

Query: Band for the recorded IC50 of "O=C(O)C1(c2ccc3c(c2)OC[C@H](Cc2ccc(F)cc2F)[C@H]3O)CCCC1" ?
Response: group 2
